- assay-comment: Electrical activity assay on cell lines treated with a given drug. DMSO was used as a vehicle and a control, unblinded dofetilide was used as a control.
- measurement-conditions: human, ipsc-cm, 0.01 µM
The reader will find reported FPD measurement values listed item by item below.
measurement-kind: FPD measurement

molecule | measured
COC(=O)C1=C(C)NC(C)=C(C(=O)OC)C1c1ccccc1[N+](=O)[O-] [NIFEDIPINE] | 43.95 FPDc
COc1ccc([C@@H]2Sc3ccccc3N(CCN(C)C)C(=O)[C@@H]2OC(C)=O)cc1 [DILTIAZEM] | 53.63 FPDc
COc1ccc(CCN2CCC(Nc3nc4ccccc4n3Cc3ccc(F)cc3)CC2)cc1 [ASTEMIZOLE] | 57.8 FPDc
CN1CCN(CCCCN2C(=O)CN(/N=C/c3ccc(-c4ccc(Cl)cc4)o3)C2=O)CC1 [AZIMILIDE] | 55.32 FPDc
